conditions: in toluene, 308.15 K
PARAMETER_MEASURED: solubility (mole fraction)
One number for each entry.

**Query** So what's the measured solubility (mole fraction) for this one? O=C1CCCCCCCCCCC1
**Result** 0.607

###

details: in ethyl acetate, 313.15 K
PARAMETER_MEASURED: solubility (mole fraction)
One number for each entry.

**Query** So what's the measured solubility (mole fraction) for this one? O=C1CCCCCCCCCCC1
**Result** 0.615

###

settings: in ethyl acetate, 293.15 K
PARAMETER_MEASURED: solubility (mole fraction)
One number for each entry.

**Query** So what's the measured solubility (mole fraction) for this one? O=C1CCCCCCCCCCC1
**Result** 0.345

Just for reference, BigSolDB 2.1 is where these values come from.
